Target: Cav2.3 (Homo sapiens, UniProt Q15878)
Sequence (Q15878 whole entry, looked up): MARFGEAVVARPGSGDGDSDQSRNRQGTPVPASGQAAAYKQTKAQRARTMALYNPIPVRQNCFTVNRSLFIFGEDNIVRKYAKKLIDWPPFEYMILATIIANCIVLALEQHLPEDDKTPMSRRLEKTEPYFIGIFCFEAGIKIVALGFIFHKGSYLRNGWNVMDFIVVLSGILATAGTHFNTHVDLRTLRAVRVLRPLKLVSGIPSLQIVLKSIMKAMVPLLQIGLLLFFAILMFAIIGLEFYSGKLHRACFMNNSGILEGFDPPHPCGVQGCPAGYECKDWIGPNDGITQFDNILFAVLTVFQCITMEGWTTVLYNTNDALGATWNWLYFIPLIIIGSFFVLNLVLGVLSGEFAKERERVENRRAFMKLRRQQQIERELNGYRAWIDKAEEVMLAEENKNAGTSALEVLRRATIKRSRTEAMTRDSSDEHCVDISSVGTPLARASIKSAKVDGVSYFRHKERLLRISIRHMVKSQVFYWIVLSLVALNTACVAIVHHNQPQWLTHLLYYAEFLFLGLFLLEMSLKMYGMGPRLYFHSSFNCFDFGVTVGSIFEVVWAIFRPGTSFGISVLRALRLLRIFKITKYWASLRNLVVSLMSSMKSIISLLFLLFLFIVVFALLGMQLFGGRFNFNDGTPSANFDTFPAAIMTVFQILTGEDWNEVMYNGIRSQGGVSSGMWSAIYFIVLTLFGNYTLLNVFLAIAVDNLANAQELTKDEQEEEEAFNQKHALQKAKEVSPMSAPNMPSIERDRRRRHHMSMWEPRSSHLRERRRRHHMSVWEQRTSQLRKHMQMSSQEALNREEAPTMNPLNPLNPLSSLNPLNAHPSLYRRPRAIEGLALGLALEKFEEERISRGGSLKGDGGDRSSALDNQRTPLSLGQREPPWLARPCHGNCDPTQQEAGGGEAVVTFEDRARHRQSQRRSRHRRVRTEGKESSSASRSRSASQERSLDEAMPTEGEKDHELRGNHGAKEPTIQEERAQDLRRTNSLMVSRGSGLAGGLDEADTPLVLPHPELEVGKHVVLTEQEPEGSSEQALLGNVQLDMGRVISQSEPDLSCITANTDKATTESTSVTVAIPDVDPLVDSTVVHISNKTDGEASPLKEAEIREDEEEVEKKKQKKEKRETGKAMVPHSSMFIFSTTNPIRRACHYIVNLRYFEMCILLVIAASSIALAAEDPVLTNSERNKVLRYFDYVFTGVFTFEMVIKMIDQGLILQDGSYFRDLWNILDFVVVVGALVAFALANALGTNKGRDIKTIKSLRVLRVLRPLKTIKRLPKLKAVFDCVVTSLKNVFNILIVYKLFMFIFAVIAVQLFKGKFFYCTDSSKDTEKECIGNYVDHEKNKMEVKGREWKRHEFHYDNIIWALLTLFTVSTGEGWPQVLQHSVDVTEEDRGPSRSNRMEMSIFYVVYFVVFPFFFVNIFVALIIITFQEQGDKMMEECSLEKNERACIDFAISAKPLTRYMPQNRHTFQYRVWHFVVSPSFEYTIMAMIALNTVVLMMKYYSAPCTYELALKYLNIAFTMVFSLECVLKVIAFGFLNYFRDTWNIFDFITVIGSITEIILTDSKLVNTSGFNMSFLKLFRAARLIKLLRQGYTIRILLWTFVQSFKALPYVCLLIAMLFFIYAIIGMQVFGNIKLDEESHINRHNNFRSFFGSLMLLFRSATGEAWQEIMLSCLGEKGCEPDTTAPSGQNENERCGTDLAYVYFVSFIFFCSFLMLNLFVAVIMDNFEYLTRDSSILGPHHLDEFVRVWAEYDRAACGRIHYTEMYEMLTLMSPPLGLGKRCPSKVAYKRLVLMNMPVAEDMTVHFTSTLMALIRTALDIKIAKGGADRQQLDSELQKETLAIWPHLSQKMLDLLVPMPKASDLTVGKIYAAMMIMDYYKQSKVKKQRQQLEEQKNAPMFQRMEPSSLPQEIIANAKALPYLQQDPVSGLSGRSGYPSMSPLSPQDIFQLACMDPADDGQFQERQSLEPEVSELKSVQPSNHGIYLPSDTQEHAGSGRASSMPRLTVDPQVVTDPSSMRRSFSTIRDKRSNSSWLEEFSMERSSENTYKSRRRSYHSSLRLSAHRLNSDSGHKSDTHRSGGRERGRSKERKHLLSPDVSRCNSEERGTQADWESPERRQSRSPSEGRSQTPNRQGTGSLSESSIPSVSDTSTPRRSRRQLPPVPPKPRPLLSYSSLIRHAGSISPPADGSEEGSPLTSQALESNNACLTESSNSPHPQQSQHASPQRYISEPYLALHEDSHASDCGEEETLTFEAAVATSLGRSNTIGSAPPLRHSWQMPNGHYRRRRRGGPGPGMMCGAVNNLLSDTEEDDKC
Test: Human Cav2.3 channel calcium-influx assay
Assay type: cell-based
Conditions: Fluo8 fluorescence, HEK-293 T-Rex/Kir2.1/Cav2.3e cells, without pluronic acid, read-out: Cav2.3 (pIC50) (converted)
Experimental: HEK-293 T-Rex cells were transfected with pcDNA3.1-Kir2.1 to generate a stable cell line. After antibiotic selection, the obtained stable pools were analysed using FLIPR^TETRA (membrane potential assay), and a limiting dilution was performed and a HEK-293 T-Rex/Kir2.1 clone was selected. […] Data analysis was performed with Genedata Screener® software and reported compounds activity as % effect in relation to the normalization standards. The Kinetic Response Value (KRV) is calculated as follows: […]
reported endpoint: IC50 (µM)

Would you please look over these solved cases?
[[record]]
molecule = "CCN(C(c1ccc(F)cc1)C(F)(F)F)S(=O)(=O)c1csc(C(N)=O)n1 (centres unmarked) [Example 49]"
measured_on = "Cav2.3 (Homo sapiens, UniProt Q15878)"
unit_spec = "µM"
reading = 0.339

[[record]]
molecule = "CCN(C(c1ccc(F)cc1)C(F)(F)F)S(=O)(=O)c1cncc(C2COC2)c1 (centres unmarked) [Example 99]"
measured_on = "Cav2.3 (Homo sapiens, UniProt Q15878)"
unit_spec = "µM"
reading = 0.275

[[record]]
molecule = "CN([C@H](c1ccc(OC(F)F)cc1)C(F)(F)F)S(=O)(=O)c1cncc(C#N)c1 [Example 240]"
measured_on = "Cav2.3 (Homo sapiens, UniProt Q15878)"
unit_spec = "µM"
reading = 0.162

[[record]]
molecule = "CCN(C(c1ccc(F)cc1)C(F)(F)F)S(=O)(=O)c1ccc2c(c1)S(=O)(=O)CC2 (centres unmarked) [Example 28]"
measured_on = "Cav2.3 (Homo sapiens, UniProt Q15878)"
unit_spec = "µM"
reading = 0.355

[[record]]
molecule = "CCN(C(c1ccc(F)cc1)C(F)(F)F)S(=O)(=O)c1cnc(C#N)s1 (centres unmarked) [Example 82]"
measured_on = "Cav2.3 (Homo sapiens, UniProt Q15878)"
unit_spec = "µM"
reading = 0.912


I. CCN([C@H](c1ccc(F)cc1)C(F)(F)F)S(=O)(=O)c1ccn2ncnc2c1 [Example 137]
II. CCN([C@H](c1ccc(F)cc1)C(F)(F)F)S(=O)(=O)c1cnccn1 [Example 265]
In: Of I and II , whose reported IC50 is the larger number? Kindly give the label for the entry you pick.
Out: I
(I: 0.0724 µM, II: 0.0398 µM)
